species: Rattus norvegicus; assay: DrugMatrix - Regimen: Daily Repeat; format: toxicity, organism-based, Sprague-Dawley; parameters: regimen Daily Repeat, gender Male, age 6-8 weeks; conditions: in vivo, po, 0 mg/kg, 72 h, tissue Plasma, route oral GAVAGE, dose level Control, time 3 day, vehicle .5 % CMC
property: URIC ACID

Query: URIC ACID for COc1c(C)c2c(c(O)c1C/C=C(\C)CCC(=O)OCCN1CCOCC1)C(=O)OC2 [MYCOPHENOLATE MOFETIL] ?
Reply: 1.28 mg/dL

###

species: Rattus norvegicus; test: DrugMatrix - Regimen: Daily Repeat; format: toxicity, organism-based, Sprague-Dawley; parameters: regimen Daily Repeat, gender Male, age 6-8 weeks; details: in vivo, po, 0 mg/kg, 72 h, tissue Plasma, route oral GAVAGE, dose level Control, time 3 day, […]
property: ALKALINE PHOSPHATASE (u/L)
The response must be a number in u/L with no trailing unit.

INSERT INTO results (compound, property, val) VALUES
  ('C=CCN', 'ALKALINE PHOSPHATASE', 530);

Query: ALKALINE PHOSPHATASE lookup needed for CC(=O)[C@H]1CC[C@H]2[C@@H]3CCC4=CC(=O)CC[C@]4(C)[C@H]3CC[C@]12C , thanks.
Reply: 322.83

Query: # input compound: COCc1c(C(C)C)nc(C(C)C)c(/C=C/[C@@H](O)C[C@@H](O)CC(=O)O)c1-c1ccc(F)cc1 ; wanted: its ALKALINE PHOSPHATASE
Reply: 462.5

Query: Any idea what ALKALINE PHOSPHATASE was measured for CSc1ccc2c(c1)N(CCC1CCCCN1C)c1ccccc1S2 (stereo not given) ?
Reply: 437.83

Query: # get_value(readout='ALKALINE PHOSPHATASE', item= Cn1cnc([N+](=O)[O-])c1Sc1ncnc2nc[nH]c12 )
Reply: 607.67

Query: Reported ALKALINE PHOSPHATASE for COC1=CC(=O)C[C@@H](C)[C@]12Oc1c(Cl)c(OC)cc(OC)c1C2=O : what is it?
Reply: 332.5
